All figures here come from BindingDB's records for doi:10.3109/14756360902888184.

# subject_of_test: Secreted cathepsin L 1 (Fasciola hepatica, UniProt Q7JNQ9)
# Sequence (Q7JNQ9 whole entry): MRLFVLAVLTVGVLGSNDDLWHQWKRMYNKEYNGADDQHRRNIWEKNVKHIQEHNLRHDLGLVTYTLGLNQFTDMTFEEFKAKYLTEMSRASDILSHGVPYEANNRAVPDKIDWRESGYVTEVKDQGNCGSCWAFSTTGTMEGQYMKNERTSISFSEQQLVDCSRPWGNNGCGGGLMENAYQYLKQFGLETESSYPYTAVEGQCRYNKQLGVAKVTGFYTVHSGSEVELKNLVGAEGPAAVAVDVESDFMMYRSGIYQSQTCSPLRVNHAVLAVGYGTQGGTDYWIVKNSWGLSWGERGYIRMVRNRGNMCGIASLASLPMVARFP
# test_summary: Cathepsin L Enzyme Assay
pIC50: −log10 of the molar value. Residues, ends and D or L forms follow the SMILES beside them. *: point of attachment. Bz = O=C(c1ccccc1)*

# molecule, readout_qualifier, pIC50
records = [
    ("CC(C)C[C@H](NC(=O)c1cc(F)c(F)c(F)c1)C(=O)NCC#N", "=", 5.47),
    ("CC(C)C[C@H](NC(=O)c1c(F)ccc(F)c1F)C(=O)NCC#N", "=", 5.22),
    ("CC(C)C[C@H](NC(=O)c1cccc(C(F)(F)F)c1)C(=O)NCC#N", "=", 5.04),
    ("CC(C)C[C@H](NC(=O)c1cc(F)ccc1F)C(=O)NCC#N", "=", 5.51),
    ("CC(C)C[C@H](NC(=O)c1cc(F)c(F)c(F)c1F)C(=O)NCC#N", "=", 5.47),
    ("CC(C)C[C@H](NC(=O)c1ccc(F)c(F)c1)C(=O)NCC#N", "=", 5.51),
    ("CC(C)C[C@H](NC(=O)c1c(F)cccc1F)C(=O)NCC#N", "=", 5.43),
    ("CC(C)C[C@H](NC(=O)c1ccc(F)c(F)c1F)C(=O)NCC#N", "=", 5.39),
    ("C[C@H](NC(=O)c1ccccc1F)C(=O)NCC#N", "=", 4.06),
    ("CC(C)C[C@H](NC(=O)c1ccccc1)C(=O)NCC(=O)O [N-benzoyl-L-leucine-glycine (37)] (Bz-Leu-Gly-OH)", "=", 5.00),
    ("C[C@H](NC(=O)c1c(F)c(F)c(F)c(F)c1F)C(=O)NCC#N", "=", 4.17),
    ("CC(C)C[C@H](NC(=O)c1cc(F)cc(F)c1)C(=O)NCC#N", "=", 5.52),
    ("CC(C)C[C@H](NC(=O)c1ccc(F)cc1F)C(=O)NCC#N", "=", 5.26),
    ("C[C@H](NC(=O)c1c(F)c(F)c(F)c(F)c1F)C(=O)NCCC#N", "<", 4.00),
    ("CC(C)C[C@H](NC(=O)c1c(F)c(F)c(F)c(F)c1F)C(=O)NCC#N", "=", 5.36),
    ("CC(C)C[C@H](NC(=O)c1ccc(C(F)(F)F)cc1)C(=O)NCC#N", "=", 5.49),
    ("C[C@H](NC(=O)c1ccccc1F)C(=O)NCCC#N", "<", 4.00),
    ("CC(C)C[C@H](NC(=O)c1cc(F)c(F)cc1F)C(=O)NCC#N", "=", 5.35),
    ("CC(C)C[C@H](NC(=O)c1ccccc1C(F)(F)F)C(=O)NCC#N", "=", 5.39),
]
